# experimentalTarget: Myc proto-oncogene protein (Homo sapiens) (UniProt P01106)
# Sequence (P01106 whole entry, looked up): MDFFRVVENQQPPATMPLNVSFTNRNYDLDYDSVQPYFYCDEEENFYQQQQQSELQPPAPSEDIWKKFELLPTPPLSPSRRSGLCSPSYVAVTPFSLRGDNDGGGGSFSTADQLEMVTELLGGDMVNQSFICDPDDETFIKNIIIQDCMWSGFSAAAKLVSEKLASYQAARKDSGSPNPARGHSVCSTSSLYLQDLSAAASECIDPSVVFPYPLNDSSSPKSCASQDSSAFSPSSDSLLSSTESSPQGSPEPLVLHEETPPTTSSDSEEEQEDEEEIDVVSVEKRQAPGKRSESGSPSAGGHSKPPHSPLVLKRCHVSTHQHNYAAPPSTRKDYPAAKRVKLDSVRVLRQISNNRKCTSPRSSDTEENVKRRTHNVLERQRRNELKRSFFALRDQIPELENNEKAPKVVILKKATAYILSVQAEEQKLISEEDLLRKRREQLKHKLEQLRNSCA
# assayComment: ATG_Myc_CIS: Attagene CIS-FACTORIAL HepG2 Assay for human Myelocytomatosis (Myc) Proto-Oncogene Transcription Factor (AID 2282990)
# runConditions: HepG2, Attagene cis-reporter transcription factor activity; actives raise or lower the signal
# Procedure: ATG_CIS is a cell-based, multiplexed-readout assay that uses HepG2, a human liver cell line, with measurements taken at 24 hours after chemical dosing in a 24-well plate.ATG_Myc_CIS is one of 52 assay component(s) measured or calculated from the ATG_CIS assay. […] This assay endpoint, ATG_Myc_CIS, was analyzed with bidirectional fitting relative to DMSO as the negative control and baseline of activity. […]
The source made the active and inactive calls. The calls were made as follows: active = hit-call score of the fitted dose curve at least 0.9, where 1 is the maximum; inactive = score below 0.9.
Classes used: y for active, n for inactive

1. Nc1cc(Cl)c(N)c(Cl)c1    n
2. O=C(O)C(F)(F)C(F)(F)F    n
3. CCCCCCCCC(F)(F)C(F)(F)C(F)(F)C(F)(F)C(F)(F)C(F)(F)F    n
4. CC(C)c1ccccc1N    n
5. FC(F)(F)C(F)(F)C(F)(F)C(F)(F)CCI    n
6. OC[C@@H](O)[C@@H](O)[C@H](O)[C@@H](O)CO    n
7. C=CC(F)(F)C(F)(F)C(F)(F)C(F)(F)C(F)(F)C(F)(F)C(F)(F)C(F)(F)F    n
8. CC(C)OC(=O)c1ccccc1C(=O)OC(C)C    n
9. OCC(F)(F)C(F)(F)C(F)(F)C(F)F    n
10. FC(F)(F)C(F)(F)CNCC(F)(F)C(F)(F)F    n
11. Nc1ccc(Oc2cccc(Oc3ccc(N)cc3)c2)cc1    n
12. Cc1cccc(N(C)C)c1    n
13. CS(C)(=O)=O    n
14. OCC(F)(F)C(F)(F)C(F)(F)C(F)(F)C(F)(F)C(F)F    n
15. O=C(O)C(F)(F)C(F)(F)C(F)(F)F    n
16. Cc1ccc(S(=O)(=O)NCl)cc1    n
17. FC1CC(F)(F)C(F)(F)C1(F)F (centres undefined)    n
18. CCCCCC=O    n
19. CN(C)Cc1ccccc1O    n
20. CC(Cc1ccc(O)c(O)c1)C(C)Cc1ccc(O)c(O)c1 (centres undefined)    n
21. O=S(=O)(OCC(F)F)C(F)(F)F    n
22. CCCCCCCCCCCCCCCC[N+](C)(C)Cc1ccccc1    y
23. Nc1ccc(S(=O)(=O)Nc2nccs2)cc1    n
24. CCCCNc1ccccc1    n
25. C=C(C)C(=O)OCCC(F)(F)C(F)(F)C(F)(F)C(F)(F)C(F)(C(F)(F)F)C(F)(F)F    n
26. CC(=O)Nc1ccc(N=Nc2cc(C)ccc2O)cc1    n
27. CCCCCCOC(=O)c1ccccc1    n
28. CCCCCCS    n
29. NC(=O)C(F)(F)C(F)(F)C(F)(F)C(F)(F)F    n
30. O=S(=O)(O)C(F)(F)C(F)(F)C(F)(F)C(F)(F)C(F)(F)C(F)(F)C(F)(F)F    n
31. Oc1ccc(Nc2ccccc2)cc1    n
32. CCCCOCCOCCOC(=O)CCCCC(=O)OCCOCCOCCCC    n
33. O=C(O)C=C(C(F)(F)F)C(F)(F)F    n
34. C#C[C@]1(O)CC[C@H]2[C@@H]3CCc4cc(OC)ccc4[C@H]3CC[C@@]21C    n
35. FC(F)(F)C(F)(F)C(F)(F)C(F)(F)C(F)(F)C(F)(F)CCS    n
36. CC(C)(C)c1ccc(OC2CCCCC2O)cc1 (centres undefined)    n
37. CC(C)(C)C(=O)CC(=O)C(F)(F)C(F)(F)C(F)(F)F    n
38. CCO[Si](CCC(F)(F)C(F)(F)C(F)(F)C(F)(F)C(F)(F)C(F)(F)F)(OCC)OCC    n
39. C=CC(=O)OCC(F)(F)C(F)(F)C(F)(F)C(F)(F)C(F)(F)C(F)(F)C(F)(F)F    n
40. C1COCCN1    n
41. CCCCCCC(C)OC(=O)CCCCC(=O)OC(C)CCCCCC (centres undefined)    n
42. O=C(CC(=O)C(F)(F)C(F)(F)F)C(F)(F)F    n
43. OCCCC(F)(F)C(F)(F)C(F)(F)F    n
44. CO[Si](OC)(c1ccccc1)c1ccccc1    n
45. CCC(=O)OCCc1ccccc1    n
46. c1ccc(B(c2ccccc2)c2ccccc2)cc1    n
47. FC(F)(F)C(F)(F)C(F)(F)C(F)(F)C(F)(F)C(F)(F)C(F)(F)C(F)(F)F    n
48. [Co]    n
49. COC(=O)C1CCC(C(=O)OC)CC1 (centres undefined)    n
50. O=C(O)C(F)(OC(F)(F)C(F)(OC(F)(F)C(F)(F)C(F)(F)F)C(F)(F)F)C(F)(F)F (centres undefined)    n
51. O=C(O)C(F)(F)C(F)(F)C(F)(F)C(F)(F)C(F)(F)C(F)(F)C(F)(F)C(F)(F)C(F)(F)C(F)(F)C(F)(F)C(F)(F)C(F)(F)F    n
52. OCC(F)(F)C(F)(F)C(F)(F)F    n
53. C=C(C)C(=O)OCC(F)(F)C(F)(F)C(F)(F)F    n
54. FC(F)(F)C(F)(F)C(F)(F)C(F)(F)C(F)(F)C(F)(F)C(F)(F)I    n

###

# assayComment: Tanguay_ZF_120hpf_MORT: Oregon State University Tanguay Lab 120 Hour Post-fertilization zebrafish Assay for Mortality (AID 2284399)
The source made the active and inactive calls. The calls were made as follows: active = hit-call score of the fitted dose curve at least 0.9, where 1 is the maximum; inactive = score below 0.9.
Classes used: active, inactive

1) C=CC(F)(F)C(F)(F)C(F)(F)C(F)(F)C(F)(F)C(F)(F)C(F)(F)C(F)(F)C=C    inactive
2) O=C(O)C(F)(F)C(F)(F)C(F)(F)C(F)(F)F    inactive
3) O=C(O)C(F)(OC(F)(F)C(F)(OC(F)(F)C(F)(OC(F)(F)C(F)(F)C(F)(F)F)C(F)(F)F)C(F)(F)F)C(F)(F)F (configuration not stated)    inactive
4) O=C(O)C=C(C(F)(F)F)C(F)(F)F    inactive
5) NC(=O)C(F)(F)C(F)(F)C(F)(F)C(F)(F)F    inactive
6) C=C(C)C(=O)OCCC(F)(F)C(F)(F)C(F)(F)C(F)(F)C(F)(C(F)(F)F)C(F)(F)F    inactive
7) O=C(O)C(F)(F)C(F)(F)OC(F)(F)F    inactive
8) O=S(=O)(OCCOC(F)(F)F)C(F)(F)F    inactive
9) O=C(O)C(F)(F)C(F)(F)C(F)(F)C(F)(F)C(F)(F)C(F)(F)C(F)(F)C(F)(F)C(F)(F)C(F)F    active
10) OCCCC(F)(F)C(F)(F)C(F)(F)F    inactive
11) C=CC(F)(F)C(F)(F)C(F)(F)C(F)(F)C(F)(F)C(F)(F)C(F)(F)C(F)(F)F    inactive
12) FC(F)(F)C(F)(F)C(F)(F)C(F)(F)C(F)(F)C(F)(F)C(F)(F)Br    inactive
13) C=C(C)C(=O)OCC(F)(F)C(F)(F)C(F)(F)C(F)(F)C(F)(F)C(F)(F)C(F)(F)F    inactive
14) C=C(C)C(=O)OCC(F)(F)C(F)(F)C(F)(F)F    inactive
15) FC(F)(F)C(F)(F)C(F)(F)CI    inactive
16) FC(F)(F)C(F)(F)C(F)(F)C(F)(F)C(F)(F)C(F)(F)C(F)(F)C(F)(F)CCS    inactive
17) O=P(O)(O)OCCC(F)(F)C(F)(F)C(F)(F)C(F)(F)C(F)(F)C(F)(F)F    active
18) FC(F)(F)C(F)(F)C(F)(F)C(F)(F)C(F)(F)C(F)(F)C(F)(F)C(F)(F)F    inactive
19) C=CC(=O)OCC(F)(F)C(F)(F)C(F)(F)C(F)(F)COC(=O)C=C    active
20) O=S(=O)(O)C(F)(F)C(F)(F)C(F)(F)C(F)(F)C(F)(F)C(F)(F)C(F)(F)F    inactive
21) O=C(CC(=O)C(F)(F)C(F)(F)F)C(F)(F)F    inactive
22) O=S(=O)(OCC(F)F)C(F)(F)F    inactive
23) O=C(O)C(F)(F)C(F)(F)C(F)F    inactive
24) CCO[Si](CCC(F)(F)C(F)(F)C(F)(F)C(F)(F)C(F)(F)C(F)(F)F)(OCC)OCC    inactive
25) FC(F)(F)C(F)(F)C(F)(F)C(F)(F)C(F)(F)CCI    inactive
26) OCC(F)(F)C(F)(F)C(F)(F)F    inactive
27) O=C(O)C(F)(F)C(F)(F)C(F)(F)C(F)(F)C(F)(F)C(F)(F)C(F)(F)C(F)(F)C(F)(F)C(F)(F)C(F)(F)C(F)(F)C(F)(F)F    inactive
